All figures here come from paper PMC5597230.

# study.system: T1, FadR (Thermus thermophilus HB8, UniProt Q5SM42 1-205)
# T1 sequence: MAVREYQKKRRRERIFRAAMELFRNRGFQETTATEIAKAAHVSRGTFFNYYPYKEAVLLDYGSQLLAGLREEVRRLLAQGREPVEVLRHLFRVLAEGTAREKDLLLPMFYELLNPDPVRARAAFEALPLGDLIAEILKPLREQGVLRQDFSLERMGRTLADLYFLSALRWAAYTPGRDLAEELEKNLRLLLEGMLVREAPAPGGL
# run.description: EMSA; Kd in figure only; all promoter probes 0.053-11 nM; EMSA as in previous SbtR study (buffer, salt, pH, temperature not given in the material); FadR titrations up to 600 nM, IRD700-labeled probes
# test.context: protein: recombinant; tags: none stated (pET-11a); chain copies: 2; label: IRD700
measured.endpoint: binding result

binder | measured.endpoint | readout.value
ST2_FadR_TTHA0846 (dsDNA) DNA 1: AGGAATTCGTGCAGAGGTGAATTTATACTCAGTACATTTACCATCCCTCCAGAAGCTTGG DNA 2: CCAAGCTTCTGGAGGGATGGTAAATGTACTGAGTATAAATTCACCTCTGCACGAATTCCT | binding result | binds
ST2_FadR_TTHA0390 (dsDNA) DNA 1: AGGAATTCGTGCAGAGGTGAATTTGAACCGGGTATAATTACCATCCCTCCAGAAGCTTGG DNA 2: CCAAGCTTCTGGAGGGATGGTAATTATACCCGGTTCAAATTCACCTCTGCACGAATTCCT | binding result | binds
